Assay: self-splicing fitness, log relative to wild type (ln ratio); higher = more splicing; Tetrahymena group I intron in knt gene, E. coli kanamycin selection, DiMSum; sequences stand for … in CUCUCU…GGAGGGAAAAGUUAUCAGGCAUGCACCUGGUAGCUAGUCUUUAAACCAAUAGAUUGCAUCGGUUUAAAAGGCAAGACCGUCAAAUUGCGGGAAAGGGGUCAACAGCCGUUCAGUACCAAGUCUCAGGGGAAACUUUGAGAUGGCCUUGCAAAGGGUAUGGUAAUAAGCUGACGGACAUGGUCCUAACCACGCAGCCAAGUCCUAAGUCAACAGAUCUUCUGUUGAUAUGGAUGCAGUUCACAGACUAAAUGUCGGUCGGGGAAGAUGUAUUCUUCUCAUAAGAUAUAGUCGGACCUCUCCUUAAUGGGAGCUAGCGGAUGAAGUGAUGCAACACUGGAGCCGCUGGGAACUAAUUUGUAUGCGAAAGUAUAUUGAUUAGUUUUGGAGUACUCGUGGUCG;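 further: selection with 25 µg/mL kanamycin versus none on LB agar overnight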
Details: 30 °C
Quick rule: self-splicing fitness (ln) of at least -2 means TRUE, below that means FALSE.

sequence-string	category-label
ACCAAGCAAUAUUACGAGCA	FALSE
CUCAAGCAAUAUUACGAAAA	FALSE
AUGCAGCAAUAUUACGCCAA	TRUE
CUUCAGCAAUAUUACGAACG	TRUE
GCUUAGCAAUAUUACGUAAU	TRUE
GGGUAGCAAUAUUACGACUU	TRUE
ACAUAGCAAUAUUACGGCUC	TRUE
CUCAAGCAAUAUUACGAAGA	FALSE
ACCCAGCAAUAUUACGUUAU	TRUE
ACGAAGCAAUAUUACGUUUC	FALSE

Asked: Form field: self-splicing fitness (ln) at least -2? Entry: GACUAGCAAUAUUACGAGCC
Given back: TRUE

* * *

Field: self-splicing fitness (ln). Provide a value for each of the sequences that follow.
Assay: self-splicing fitness, log relative to wild type (ln ratio); higher = more splicing; Tetrahymena group I intron in knt gene, E. coli kanamycin selection, DiMSum; sequences stand for … in CUCUCU…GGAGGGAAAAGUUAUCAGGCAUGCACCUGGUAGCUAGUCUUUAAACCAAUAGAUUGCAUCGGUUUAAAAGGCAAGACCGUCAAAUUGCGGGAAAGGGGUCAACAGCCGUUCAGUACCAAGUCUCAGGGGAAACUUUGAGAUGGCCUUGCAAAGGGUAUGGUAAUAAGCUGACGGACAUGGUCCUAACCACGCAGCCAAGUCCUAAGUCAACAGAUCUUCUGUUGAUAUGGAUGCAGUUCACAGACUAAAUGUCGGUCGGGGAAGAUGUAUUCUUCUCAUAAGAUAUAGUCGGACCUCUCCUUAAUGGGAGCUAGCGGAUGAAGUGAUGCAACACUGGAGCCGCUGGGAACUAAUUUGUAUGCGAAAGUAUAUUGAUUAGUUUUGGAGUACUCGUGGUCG
Conditions: 30 °C
Give bare numbers.

Worked cases, answers included:
sequence-string	value-reported
CAAUAGCAAUAUUACGCAUG	-1.35
CGUUAGCAAUAUUACGCGCC	-2.21
CCUGAGCAAUAUUACGGCCA	-2.01

Report self-splicing fitness (ln) for every entry below.
1. CAACAGCAAUAUUACGGGGC
2. UACCAGCAAUAUUACGACAC
3. ACAGAGCAAUAUUACGCAUA

Given back:
-3.71
-2.34
-3.96

Give self-splicing fitness (ln) for each of the items listed below.
1. GUCAAGCAAUAUUACGACUG
2. CAUUAGCAAUAUUACGUAAC
3. GACCAGCAAUAUUACGCCUG
4. CCUGAGCAAUAUUACGUGUU
5. AACAAGCAAUAUUACGCCUG

Given back:
1: -4.59; 2: -3.01; 3: -2.16; 4: -4.7; 5: -0.373

Quick one: give me self-splicing fitness (ln) for each item below, same order please.
1. GCGAAGCAAUAUUACGCUUA
2. GUCCAGCAAUAUUACGUAGC

Given back:
1. -2.1
2. -0.399

For every item below, please supply its self-splicing fitness (ln).
1. UUGUAGCAAUAUUACGGAUA
2. UGGAAGCAAUAUUACGACAA
3. UACAAGCAAUAUUACGCAAU

Given back:
1. -2.68
2. -1.46
3. -3.44
